Target: Human CD40 (human, UniProt P25942 21-277)
Sequence (P25942 21-277 limits assumed): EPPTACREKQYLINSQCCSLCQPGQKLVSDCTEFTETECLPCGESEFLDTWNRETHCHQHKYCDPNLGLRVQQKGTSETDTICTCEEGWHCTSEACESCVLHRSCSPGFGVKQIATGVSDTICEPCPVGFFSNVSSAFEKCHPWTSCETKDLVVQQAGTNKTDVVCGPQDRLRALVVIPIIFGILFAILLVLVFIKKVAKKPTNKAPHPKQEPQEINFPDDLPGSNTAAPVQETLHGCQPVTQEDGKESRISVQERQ
Experiment: cell-based or functional assay
readout type: Antagonist: Jurkat/Reporter assay (IC50 nM)
Number in nM, nothing else.

binder="huAb1v1CDR2v13 (antibody, V domains shown) VH: EVQLVESGGGLVKPGGSLRLSCAASGFTFSDYGMNWVRQAPGKGLEWIAYISSGRHNIYYADTVKGRFTISRDNAKNSLYLQMNSLRAEDTAVYYCARSWGYFDVWGQGTTVTVSS VL: DIVMTQSPDSLAVSLGERATINCKSSQSLLNRGNQKNYLTWFQQKPGQPPKLLIYWASTRESGVPDRFSGSGSGTDFTLTISSLQAEDVAVYYCQNDYTYPLTFGQGTKLEIK" units_text=nM readout_number=62.4

Consider the additional binder presented here.
According to the records, this binder huAb1v1CDR2v14 (antibody, V domains shown) VH: EVQLVESGGGLVKPGGSLRLSCAASGFTFSDYGMNWVRQAPGKGLEWIAYISSGRFNIYYADTVKGRFTISRDNAKNSLYLQMNSLRAEDTAVYYCARSWGYFDVWGQGTTVTVSS VL: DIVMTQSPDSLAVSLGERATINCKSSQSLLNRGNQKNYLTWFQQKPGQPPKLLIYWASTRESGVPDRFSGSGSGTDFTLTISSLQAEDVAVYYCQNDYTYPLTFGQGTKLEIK displays Antagonist: Jurkat/Reporter assay (IC50 nM) of 21.9
